- subject of test: hEP3A/Gqi5 (Homo sapiens, UniProt P43115)
- Construct: expressed in transfected cells; host or cells: HEK-293(EBNA)
- Sequence (P43115 1-390): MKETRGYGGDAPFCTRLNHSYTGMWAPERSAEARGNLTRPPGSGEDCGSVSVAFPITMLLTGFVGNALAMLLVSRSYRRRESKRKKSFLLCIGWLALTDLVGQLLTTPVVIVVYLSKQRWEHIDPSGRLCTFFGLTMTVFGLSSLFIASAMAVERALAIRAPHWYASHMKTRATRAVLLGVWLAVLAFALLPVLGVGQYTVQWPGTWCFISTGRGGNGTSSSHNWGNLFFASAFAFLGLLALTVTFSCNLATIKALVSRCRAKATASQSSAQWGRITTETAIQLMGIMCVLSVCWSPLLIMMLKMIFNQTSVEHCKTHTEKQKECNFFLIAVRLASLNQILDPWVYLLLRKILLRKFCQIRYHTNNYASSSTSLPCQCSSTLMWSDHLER
- procedure details: FLIPR calcium signal study, HEK-293(EBNA) cells
- Assay type: cell-based
- condition description: Table 3; read-out: FUNCTIONAL (Ca2+, EC50, nM) HEP3A
Consider the following molecules and their measured EC50 readings.
Provide only the numeric value, understood in nM.

{"columns": ["molecule", "readout unit", "EC50"],
 "data": [
  ["CCCCCC(O)c1ccc([C@H]2CCC(=O)[C@@H]2C/C=C\\CCCC(=O)O)cc1 (stereo partly shown) [drawing 116]", "nM", 552],
  ["CCCCCC(O)c1ccc([C@H]2CCC(=O)[C@@H]2C/C=C\\CCCC(=O)OC)cc1 (stereo partly shown) [drawing 115]", "nM", 15000],
  ["CCCCCC(O)c1ccc([C@H]2CCC(=O)[C@@H]2CCCCCCC(=O)OC)cc1 (stereo partly shown)", "nM", 3090]
]}

Let's switch to this molecule now.
Exercise: Please give measured EC50 of the following entry: CCCCCC(O)c1ccc([C@H]2CCC(=O)[C@@H]2CCCCCCC(=O)O)cc1 (stereo partly shown)
Solution: 90

----------
Consider the following molecules and their measured pEC50 readings.
- subject of test: hEP2/Gqs5 (Homo sapiens, UniProt P43116)
- Construct: expressed in transfected cells; host or cells: HEK-293(EBNA)
- Sequence (P43116 whole entry): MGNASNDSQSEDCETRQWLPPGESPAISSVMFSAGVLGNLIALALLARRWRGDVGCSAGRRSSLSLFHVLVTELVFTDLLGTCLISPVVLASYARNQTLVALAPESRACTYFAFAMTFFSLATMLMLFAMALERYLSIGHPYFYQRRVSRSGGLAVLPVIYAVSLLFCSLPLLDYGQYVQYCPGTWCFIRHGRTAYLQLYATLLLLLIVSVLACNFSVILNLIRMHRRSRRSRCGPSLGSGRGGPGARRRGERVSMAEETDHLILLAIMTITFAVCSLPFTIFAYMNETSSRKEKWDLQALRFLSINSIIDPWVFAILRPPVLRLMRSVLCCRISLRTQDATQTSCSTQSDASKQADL
- procedure details: FLIPR calcium signal study, HEK-293(EBNA) cells
- Format: cell-based
Units for pEC50: none; it is -log10 of a concentration expressed in mol/L.

Exercise: Lab note: record pEC50 of CCCCC(O)c1ccc([C@H]2CCC(=O)[C@@H]2CCCCCCC(=O)O)cc1 (stereo partly drawn) tested on hEP2/Gqs5 (Homo sapiens, UniProt P43116).
Solution: 5.85

Exercise: Lab note: record pEC50 of CCCCCC(O)c1ccc([C@H]2CCC(=O)[C@@H]2CCCCCCC(=O)O)s1 (stereo partly drawn) tested on hEP2/Gqs5 (Homo sapiens, UniProt P43116).
Solution: 6.11

Exercise: Lab note: record pEC50 of CCCCCC(O)c1ccc([C@H]2CCC(=O)[C@@H]2CCCCCCC(=O)OC)s1 (stereo partly drawn) tested on hEP2/Gqs5 (Homo sapiens, UniProt P43116).
Solution: 5.15

----------
- subject of test: hEP3A/Gqi5 (Homo sapiens)
- Construct: expressed in transfected cells; host or cells: HEK-293(EBNA)
- procedure details: FLIPR calcium signal study, HEK-293(EBNA) cells
- Type: cell-based
- condition description: Table 1; NA means not active; read-out: FUNCTIONAL (Ca2+, EC50, nM) HEP 3A
Consider the following molecules and their measured EC50 readings.
The reply must contain the numeric value and, after it, the unit.

{"columns": ["molecule", "EC50"],
 "data": [
  ["CCCC1(C(O)c2cccc([C@H]3CCC(=O)[C@@H]3CCCCCCC(=O)O)c2)CCC1 (some centres unmarked)", "3830 nM"]
]}

Exercise: Lab note: record EC50 of CCCCCC(O)c1ccc([C@H]2CCC(=O)[C@@H]2CCCc2ccc(C(=O)O)s2)cc1 (some centres unmarked) tested on hEP3A/Gqi5 (Homo sapiens).
Solution: 55 nM

----------
Consider the following compounds and their measured EC50 readings.
- subject of test: hEP2/Gqs5 (Homo sapiens)
- Construct: expressed in transfected cells; host or cells: HEK-293(EBNA)
- procedure details: FLIPR calcium signal study, HEK-293(EBNA) cells
- Format: cell-based
- condition description: Table 3; read-out: FUNCTIONAL (Ca2+, EC50, nM) HEP2
Provide only the numeric value, understood in nM.

{"columns": ["compound", "test value"],
 "data": [
  ["CCCCCC(O)c1ccc([C@H]2CCC(=O)[C@@H]2CCCCCCC(=O)OC)cc1 (some centres unmarked)", 2160]
]}

Let's switch to this compound now.
Exercise: Please give measured EC50 of the following entry: CCCCCC(O)c1ccc([C@H]2CCC(=O)[C@@H]2CCCCCCC(=O)O)cc1 (some centres unmarked)
Solution: 284

----------
- subject of test: hEP2/Gqs5 (Homo sapiens)
- Construct: expressed in transfected cells; host or cells: HEK-293(EBNA)
- procedure details: FLIPR calcium signal study, HEK-293(EBNA) cells
- Assay type: cell-based
- condition description: Table 1; Ca2+ signal; NA means not active; read-out: FUNCTIONAL (Ca2+, EC50, nM) HEP 2
quantity kind: EC50

{"columns": ["compound", "EC50"],
 "data": [
  ["COC(=O)CCCCCC[C@H]1C(=O)CC[C@@H]1c1ccc(C(O)C2CCCCC2)cc1 (stereo partly shown)", "> 10000 nM"]
]}

Exercise: Please give measured EC50 of the following entry: O=C(O)CCCCCC[C@H]1C(=O)CC[C@@H]1c1ccc(C2(O)CCC2)cc1
Solution: > 10000 nM

Exercise: Please give measured EC50 of the following entry: CCCC1(C(O)c2ccc([C@H]3CCC(=O)[C@@H]3C/C=C\CCCC(=O)O)cc2)CCC1 (stereo partly shown) [Entry 9]
Solution: > 10000 nM

Exercise: Please give measured EC50 of the following entry: CCCCCC(O)c1ccc([C@H]2CCC(=O)[C@@H]2CCCc2ccc(C(=O)O)s2)cc1 (stereo partly shown)
Solution: 2 nM

----------
- subject of test: hEP2/Gqs5 (Homo sapiens)
- Construct: expressed in transfected cells; host or cells: HEK-293(EBNA)
- procedure details: FLIPR calcium signal study, HEK-293(EBNA) cells
- Format: cell-based
- condition description: Table 2; unit inferred; read-out: FUNCTIONAL HEP2
quantity kind: EC50 (µM)
Provide only the numeric value, understood in µM.

Use the examples below as a reference point.
{"columns": ["molecule", "test value"],
 "data": [
  ["CCCCC(O)c1ccc([C@H]2CCC(=O)[C@@H]2CCCCCCC(=O)OC)cc1 (some centres unmarked)", 15],
  ["CCCCCC(O)c1ccc([C@H]2CCC=C2CCCCCCC(=O)O)cc1 (some centres unmarked)", 4.88],
  ["CCCCCC(O)c1ccc([C@H]2CC[C@@H](F)[C@@H]2CCCCCCC(=O)O)cc1 (some centres unmarked)", 15],
  ["CCCCCC(O)c1ccc([C@H]2CCC(=O)[C@@H]2C/C=C\\CCCC(=O)O)cc1 (some centres unmarked) [drawing 97]", 1.01]
]}

Let's switch to this molecule now.
Exercise: Please give measured EC50 of the following entry: CCCCC(O)Cc1ccc([C@H]2CCC(=O)[C@@H]2CCCCCCC(=O)OC)cc1 (some centres unmarked)
Solution: 15

----------
- subject of test: hEP4/Gqs5 (Homo sapiens, UniProt P35408)
- Construct: expressed in transfected cells; host or cells: HEK-293(EBNA)
- Sequence (P35408 whole entry): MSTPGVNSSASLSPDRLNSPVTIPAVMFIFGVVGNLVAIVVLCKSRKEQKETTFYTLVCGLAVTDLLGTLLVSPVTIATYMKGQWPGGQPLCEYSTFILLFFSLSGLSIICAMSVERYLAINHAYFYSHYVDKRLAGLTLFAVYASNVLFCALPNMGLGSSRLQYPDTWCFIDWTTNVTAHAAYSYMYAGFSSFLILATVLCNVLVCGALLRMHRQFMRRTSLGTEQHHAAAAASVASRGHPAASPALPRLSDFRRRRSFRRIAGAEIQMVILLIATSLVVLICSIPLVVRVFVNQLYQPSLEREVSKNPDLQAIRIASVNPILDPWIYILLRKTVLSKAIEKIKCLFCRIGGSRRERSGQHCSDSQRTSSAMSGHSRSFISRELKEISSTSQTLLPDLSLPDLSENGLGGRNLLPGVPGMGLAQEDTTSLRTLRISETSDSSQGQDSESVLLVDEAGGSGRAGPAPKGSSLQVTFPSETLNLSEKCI
- procedure details: FLIPR calcium signal study, HEK-293(EBNA) cells
- Format: cell-based
- condition description: Table 1; NA means not active; read-out: FUNCTIONAL (Ca2+, EC50, nM) HEP 4
quantity kind: EC50

Exercise: Please give measured EC50 of the following entry: CCCC1(C(O)c2ccc([C@H]3CCC(=O)[C@@H]3C/C=C\CCCC(=O)O)cc2)CCC1 (stereo partly shown) [Entry 9]
Solution: > 10000 nM

----------
- subject of test: hDP/Gqs5 (Homo sapiens, UniProt Q13258)
- Construct: expressed in transfected cells; host or cells: HEK-293(EBNA)
- Sequence (Q13258 whole entry): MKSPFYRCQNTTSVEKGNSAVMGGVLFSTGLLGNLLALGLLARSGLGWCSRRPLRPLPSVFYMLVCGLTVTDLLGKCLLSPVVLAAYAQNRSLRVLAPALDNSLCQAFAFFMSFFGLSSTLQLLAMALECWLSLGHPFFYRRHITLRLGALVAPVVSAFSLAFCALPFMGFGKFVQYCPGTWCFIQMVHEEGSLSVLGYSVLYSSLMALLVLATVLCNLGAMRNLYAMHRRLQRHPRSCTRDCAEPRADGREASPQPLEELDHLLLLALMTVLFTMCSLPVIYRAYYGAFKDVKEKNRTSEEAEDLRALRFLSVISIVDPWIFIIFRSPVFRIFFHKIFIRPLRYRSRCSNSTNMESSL
- procedure details: FLIPR calcium signal study, HEK-293(EBNA) cells
- Assay type: cell-based
- condition description: Table 1; NA means not active; read-out: FUNCTIONAL (Ca2+, EC50, nM) HDP
quantity kind: EC50

Exercise: Lab note: record EC50 of CCCC1(C(O)c2ccc([C@H]3CCC(=O)[C@@H]3C/C=C\CCCC(=O)O)cc2)CCC1 (stereo partly shown) tested on hDP/Gqs5 (Homo sapiens, UniProt Q13258).
Solution: > 10000 nM

Values were extracted from patent EP2027081B1.
